- protocol.details: Pharmacokinetics and oral bioavailability of D11.3 in male Swiss albino mice (IV, PO, SQ)
- Type: in vivo
- test.parameters: male, Swiss albino, mouse, plasma, sc, 5 mg/kg, SC 5.00 mg/kg, 8 h, individual mice M1, M2, M3; read-out: Plasma concentration
Where a SMILES comes first, the peptide text is derived from it. [ ]: non-standard residue; d: D form. dNMeI = CC[C@@H](C)[C@@H](NC)C(=O)O; NMeL = CN[C@@H](CC(C)C)C(=O)O
measure.name: level at 8 h (ng/mL)
Your answer is read as ng/mL, so omit the unit and give the number.

Query level at 8 h for CC[C@@H](C)[C@H]1NC(=O)[C@H]([C@@H](C)CC)NC(=O)[C@H](CC(C)C)N(C)C(=O)[C@H]2CCCN2C(=O)[C@@H]([C@H](C)CC)NC(=O)[C@@H]([C@H](C)CC)N(C)C(=O)[C@H](CC(C)C)NC(=O)[C@H]2CCCN2C(=O)[C@@H]2CCCN2C(=O)[C@H](C(C)C)NC(=O)[C@H]2CCCN2C1=O [Design D11.3] (cyclo(I[dI][dP]VP[dP]L[dNMeI][dI][dP][NMeL]))
153
